- system_name: Nicotinic acetylcholine receptor alpha9/alpha10 (Rattus norvegicus, UniProt P43144+Q9JLB5)
- Sequence (P43144 whole entry): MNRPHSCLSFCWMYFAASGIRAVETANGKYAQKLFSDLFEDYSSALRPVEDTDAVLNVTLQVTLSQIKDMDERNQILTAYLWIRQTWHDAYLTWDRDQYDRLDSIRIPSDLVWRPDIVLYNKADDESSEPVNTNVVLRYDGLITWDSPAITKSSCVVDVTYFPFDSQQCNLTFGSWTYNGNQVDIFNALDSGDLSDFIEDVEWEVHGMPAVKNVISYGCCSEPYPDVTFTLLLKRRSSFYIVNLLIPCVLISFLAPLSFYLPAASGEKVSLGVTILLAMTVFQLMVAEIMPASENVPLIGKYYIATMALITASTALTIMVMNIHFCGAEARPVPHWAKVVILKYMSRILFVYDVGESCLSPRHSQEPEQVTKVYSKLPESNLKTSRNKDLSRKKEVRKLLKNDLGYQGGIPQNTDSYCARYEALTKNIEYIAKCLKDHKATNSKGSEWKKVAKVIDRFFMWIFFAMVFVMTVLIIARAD
- Sequence (Q9JLB5 whole entry): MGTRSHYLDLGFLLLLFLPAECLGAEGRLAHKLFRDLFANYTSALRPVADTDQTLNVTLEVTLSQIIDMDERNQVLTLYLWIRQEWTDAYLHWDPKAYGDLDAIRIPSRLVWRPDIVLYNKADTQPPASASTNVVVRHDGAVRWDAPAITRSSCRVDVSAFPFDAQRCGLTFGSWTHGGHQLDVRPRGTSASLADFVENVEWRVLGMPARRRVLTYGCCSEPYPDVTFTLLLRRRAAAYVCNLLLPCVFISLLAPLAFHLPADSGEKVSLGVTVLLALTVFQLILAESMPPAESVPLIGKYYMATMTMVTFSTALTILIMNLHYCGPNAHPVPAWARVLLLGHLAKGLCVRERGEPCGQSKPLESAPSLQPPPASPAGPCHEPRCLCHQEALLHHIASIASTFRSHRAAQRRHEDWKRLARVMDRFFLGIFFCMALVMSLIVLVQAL
- test: Antagonist activity at rat alpha9alpha10 nAChR expressed in xenopus oocytes assessed as inhibition of Ach- induced response at -70 mV holding potential preincubated for 5 mins followed by Ach stimulation by voltage-clamp based electrophysiological method
pIC50: −log10 of the molar value. Where a SMILES comes first, the peptide text is derived from it. Bridges are numbered along the chain shown (N, C = ends).
measured_parameter: pIC50

Q: Query the reported pIC50 for Nicotinic acetylcholine receptor alpha9/alpha10 (Rattus norvegicus, UniProt P43144+Q9JLB5); item: C[C@@H]1NC(=O)[C@@H]2CSSC[C@H](NC(=O)CN)C(=O)N[C@@H](CSSC[C@@H](C(N)=O)NC(=O)[C@H](Cc3cnc[nH]3)NC(=O)[C@H](CCC(=O)O)NC(=O)[C@H](Cc3cnc[nH]3)NC1=O)C(=O)N[C@@H](CO)C(=O)N[C@@H](CC(N)=O)C(=O)N1CCC[C@H]1C(=O)N1CCC[C@H]1C(=O)N2 (H-GCCSNPPCAHEHC-NH2; disulfide 2-8, 3-13)
Result: < 5.00

Q: Notebook entry, Nicotinic acetylcholine receptor alpha9/alpha10 (Rattus norvegicus, UniProt P43144+Q9JLB5) assay: pIC50 of C[C@@H]1NC(=O)[C@@H]2CSSC[C@H](N)C(=O)N[C@@H](CSSC[C@@H](C(N)=O)NC(=O)[C@H](Cc3cnc[nH]3)NC(=O)[C@H](CCC(=O)O)NC(=O)[C@H](Cc3cnc[nH]3)NC1=O)C(=O)N[C@@H](CO)C(=O)N[C@@H](CC(N)=O)C(=O)N1CCC[C@H]1C(=O)N1CCC[C@H]1C(=O)N2 (H-CCSNPPCAHEHC-NH2; disulfide 1-7, 2-12) = ?
Result: < 5.00

---

- system_name: Nicotinic acetylcholine receptor alpha9/alpha10 (Rattus norvegicus) (UniProt P43144+Q9JLB5)
- test: Antagonist activity at rat alpha9alpha10 nAChR expressed in xenopus oocytes assessed as inhibition of Ach- induced response at 10 uM at -70 mV holding potential preincubated for 5 mins followed by Ach stimulation by voltage-clamp based electrophysiological method
- Assay type: cell-based
- setup_conditions: Oocyte
The source made the active and inactive calls. The calls are words filed in the database; no cut-off is given here. Where a SMILES comes first, the peptide text is derived from it. Bridges are numbered along the chain shown (N, C = ends).
measured_parameter: inhibition

These recorded examples may help you get a feel for the data.
| compound | inhibition |
| --- | --- |
| C[C@@H]1NC(=O)[C@@H]2CSSC[C@H](NC(=O)CN)C(=O)N[C@@H](CSSC[C@@H](C(=O)N[C@@H](CCCNC(=N)N)C(=O)O)NC(=O)[C@H](Cc3cnc[nH]3)NC(=O)[C@H](CCC(=O)O)NC(=O)[C@H](Cc3cnc[nH]3)NC1=O)C(=O)N[C@@H](CO)C(=O)N[C@@H](CC(N)=O)C(=O)N1CCC[C@H]1C(=O)N1CCC[C@H]1C(=O)N2 (H-GCCSNPPCAHEHCR-OH; disulfide 2-8, 3-13) | inactive |
| C[C@@H]1NC(=O)[C@@H]2CSSC[C@H](NC(=O)CN)C(=O)N[C@@H](CSSC[C@@H](C(N)=O)NC(=O)[C@H](Cc3cnc[nH]3)NC(=O)[C@H](CCC(=O)O)NC(=O)[C@H](Cc3cnc[nH]3)NC1=O)C(=O)N[C@@H](CO)C(=O)N[C@@H](CC(N)=O)C(=O)N1CCC[C@H]1C(=O)N1CCC[C@H]1C(=O)N2 (H-GCCSNPPCAHEHC-NH2; disulfide 2-8, 3-13) | inactive |
| C[C@@H]1NC(=O)[C@@H]2CSSC[C@H](NC(=O)[C@@H](N)CCC(N)=O)C(=O)N[C@@H](CSSC[C@@H](C(N)=O)NC(=O)[C@H](Cc3cnc[nH]3)NC(=O)[C@H](CCC(=O)O)NC(=O)[C@H](Cc3cnc[nH]3)NC1=O)C(=O)N[C@@H](CO)C(=O)N[C@@H](CC(N)=O)C(=O)N1CCC[C@H]1C(=O)N1CCC[C@H]1C(=O)N2 (H-QCCSNPPCAHEHC-NH2; disulfide 2-8, 3-13) | inactive |
| C[C@@H]1NC(=O)[C@@H]2CSSC[C@H](NC(=O)[C@@H](N)CCC(N)=O)C(=O)N[C@@H](CSSC[C@@H](C(=O)N[C@@H](CCCNC(=N)N)C(=O)O)NC(=O)[C@H](Cc3cnc[nH]3)NC(=O)[C@H](CCC(=O)O)NC(=O)[C@H](Cc3cnc[nH]3)NC1=O)C(=O)N[C@@H](CO)C(=O)N[C@@H](CC(N)=O)C(=O)N1CCC[C@H]1C(=O)N1CCC[C@H]1C(=O)N2 (H-QCCSNPPCAHEHCR-OH; disulfide 2-8, 3-13) | inactive |

Field: next compound
Q: Entry C[C@@H]1NC(=O)[C@@H]2CSSC[C@H](N)C(=O)N[C@@H](CSSC[C@@H](C(N)=O)NC(=O)[C@H](Cc3cnc[nH]3)NC(=O)[C@H](CCC(=O)O)NC(=O)[C@H](Cc3cnc[nH]3)NC1=O)C(=O)N[C@@H](CO)C(=O)N[C@@H](CC(N)=O)C(=O)N1CCC[C@H]1C(=O)N1CCC[C@H]1C(=O)N2 (H-CCSNPPCAHEHC-NH2; disulfide 1-7, 2-12) has what inhibition?
Result: inactive

---

- system_name: Neuronal acetylcholine receptor; alpha3/beta4 (Rattus norvegicus, UniProt P04757+P12392)
- Sequence (P12392 whole entry, one chain of several): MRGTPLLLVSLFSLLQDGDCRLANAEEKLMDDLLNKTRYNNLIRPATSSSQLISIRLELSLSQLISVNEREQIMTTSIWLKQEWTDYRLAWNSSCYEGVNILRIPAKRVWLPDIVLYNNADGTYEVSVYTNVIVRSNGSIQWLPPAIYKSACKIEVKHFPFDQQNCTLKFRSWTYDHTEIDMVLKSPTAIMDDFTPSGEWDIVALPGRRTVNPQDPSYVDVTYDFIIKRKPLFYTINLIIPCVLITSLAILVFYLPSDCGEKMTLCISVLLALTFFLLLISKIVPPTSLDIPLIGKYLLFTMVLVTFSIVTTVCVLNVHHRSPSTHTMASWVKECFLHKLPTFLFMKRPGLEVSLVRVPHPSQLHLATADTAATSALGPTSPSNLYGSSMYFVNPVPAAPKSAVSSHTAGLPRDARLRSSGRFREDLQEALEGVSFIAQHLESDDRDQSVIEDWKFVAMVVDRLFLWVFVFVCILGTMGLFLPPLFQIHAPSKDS
- test: Antagonist activity at rat alpha3beta4 nAChR expressed in xenopus oocytes assessed as inhibition of Ach- induced response at -70 mV holding potential preincubated for 5 mins followed by Ach stimulation by voltage-clamp based electrophysiological method
- Assay type: cell-based, Oocyte
Where a SMILES comes first, the peptide text is derived from it. Bridges are numbered along the chain shown (N, C = ends).
measured_parameter: IC50

Q: Form field - read-out: IC50; system: Neuronal acetylcholine receptor; alpha3/beta4 (Rattus norvegicus, UniProt P04757+P12392); submitted item: C[C@@H]1NC(=O)[C@@H]2CSSC[C@H](N)C(=O)N[C@@H](CSSC[C@@H](C(N)=O)NC(=O)[C@H](Cc3cnc[nH]3)NC(=O)[C@H](CCC(=O)O)NC(=O)[C@H](Cc3cnc[nH]3)NC1=O)C(=O)N[C@@H](CO)C(=O)N[C@@H](CC(N)=O)C(=O)N1CCC[C@H]1C(=O)N1CCC[C@H]1C(=O)N2 (H-CCSNPPCAHEHC-NH2; disulfide 1-7, 2-12)
Result: > 10 µM

---

- system_name: Neuronal acetylcholine receptor; alpha2/beta4 (Rattus norvegicus, UniProt P12389+P12392)
- Sequence (P12389 whole entry): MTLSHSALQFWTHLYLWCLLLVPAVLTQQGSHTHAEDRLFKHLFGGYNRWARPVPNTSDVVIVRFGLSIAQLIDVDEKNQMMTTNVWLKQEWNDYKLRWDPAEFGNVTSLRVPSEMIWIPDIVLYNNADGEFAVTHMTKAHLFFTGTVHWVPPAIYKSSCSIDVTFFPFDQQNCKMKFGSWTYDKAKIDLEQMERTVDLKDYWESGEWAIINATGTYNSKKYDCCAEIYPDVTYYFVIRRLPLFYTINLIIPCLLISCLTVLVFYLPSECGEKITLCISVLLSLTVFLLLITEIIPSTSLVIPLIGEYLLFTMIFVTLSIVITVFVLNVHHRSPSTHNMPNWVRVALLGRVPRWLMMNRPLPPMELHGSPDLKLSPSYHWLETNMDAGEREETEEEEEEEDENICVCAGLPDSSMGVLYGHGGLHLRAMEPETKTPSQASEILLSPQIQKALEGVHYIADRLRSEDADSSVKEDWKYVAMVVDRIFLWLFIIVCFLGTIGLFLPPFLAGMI
- Sequence (P12392 whole entry): as the sequence (P12392 whole entry, one chain of several) above
- test: Antagonist activity at rat alpha2beta4 nAChR expressed in xenopus oocytes assessed as inhibition of Ach- induced response at -70 mV holding potential preincubated for 5 mins followed by Ach stimulation by voltage-clamp based electrophysiological method
Where a SMILES comes first, the peptide text is derived from it. Bridges are numbered along the chain shown (N, C = ends).
measured_parameter: IC50

Q: Could you tell me which IC50 is on file for C[C@@H]1NC(=O)[C@@H]2CSSC[C@H](NC(=O)CN)C(=O)N[C@@H](CSSC[C@@H](C(N)=O)NC(=O)[C@H](Cc3cnc[nH]3)NC(=O)[C@H](CCC(=O)O)NC(=O)[C@H](Cc3cnc[nH]3)NC1=O)C(=O)N[C@@H](CO)C(=O)N[C@@H](CC(N)=O)C(=O)N1CCC[C@H]1C(=O)N1CCC[C@H]1C(=O)N2 (H-GCCSNPPCAHEHC-NH2; disulfide 2-8, 3-13) ?
Result: > 10 µM

---

- system_name: Neuronal acetylcholine receptor subunit alpha-7 (Rattus norvegicus, UniProt Q05941)
- Sequence (Q05941 whole entry): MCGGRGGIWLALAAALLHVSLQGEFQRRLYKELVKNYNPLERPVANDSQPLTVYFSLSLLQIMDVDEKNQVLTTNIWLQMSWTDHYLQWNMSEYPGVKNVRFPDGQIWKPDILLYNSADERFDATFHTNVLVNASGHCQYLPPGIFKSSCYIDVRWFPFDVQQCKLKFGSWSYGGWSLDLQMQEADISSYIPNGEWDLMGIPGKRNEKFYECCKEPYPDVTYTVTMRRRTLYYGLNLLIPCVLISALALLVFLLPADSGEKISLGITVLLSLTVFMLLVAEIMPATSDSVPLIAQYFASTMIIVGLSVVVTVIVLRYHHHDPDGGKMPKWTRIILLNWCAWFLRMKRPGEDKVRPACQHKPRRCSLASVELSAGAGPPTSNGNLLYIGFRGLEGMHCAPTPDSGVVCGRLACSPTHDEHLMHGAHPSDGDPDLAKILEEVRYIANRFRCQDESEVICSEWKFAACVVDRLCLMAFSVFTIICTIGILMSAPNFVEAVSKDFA
- test: Antagonist activity at rat alpha7 nAChR expressed in xenopus oocytes assessed as inhibition of Ach- induced response at -70 mV holding potential preincubated for 5 mins followed by Ach stimulation by voltage-clamp based electrophysiological method
- Format: cell-based, Oocyte
Where a SMILES comes first, the peptide text is derived from it. Bridges are numbered along the chain shown (N, C = ends).
measured_parameter: IC50 (nM)
Kindly answer with a numeric value in nM, unit omitted.

Q: What value of IC50 has been recorded for this entry: CC(C)C[C@@H]1NC(=O)[C@H](CC(=O)O)NC(=O)[C@@H]2CCCN2C(=O)[C@H](Cc2cnc[nH]2)NC(=O)[C@H](C)NC(=O)[C@H](CC(N)=O)NC(=O)[C@H](CCCNC(=N)N)NC(=O)[C@@H]2CSSC[C@H](NC(=O)CN)C(=O)N[C@@H](CSSC[C@@H](C(=O)O)NC1=O)C(=O)N[C@@H](CO)C(=O)N[C@@H](CC(=O)O)C(=O)N1CCC[C@H]1C(=O)N1CCC[C@H]1C(=O)N2 (H-GCCSDPPCRNAHPDLC-OH; disulfide 2-8, 3-16)
Result: 200

---

- system_name: Neuronal acetylcholine receptor; alpha3/beta2 (Rattus norvegicus, UniProt P04757+P12390)
- Sequence (P04757 whole entry): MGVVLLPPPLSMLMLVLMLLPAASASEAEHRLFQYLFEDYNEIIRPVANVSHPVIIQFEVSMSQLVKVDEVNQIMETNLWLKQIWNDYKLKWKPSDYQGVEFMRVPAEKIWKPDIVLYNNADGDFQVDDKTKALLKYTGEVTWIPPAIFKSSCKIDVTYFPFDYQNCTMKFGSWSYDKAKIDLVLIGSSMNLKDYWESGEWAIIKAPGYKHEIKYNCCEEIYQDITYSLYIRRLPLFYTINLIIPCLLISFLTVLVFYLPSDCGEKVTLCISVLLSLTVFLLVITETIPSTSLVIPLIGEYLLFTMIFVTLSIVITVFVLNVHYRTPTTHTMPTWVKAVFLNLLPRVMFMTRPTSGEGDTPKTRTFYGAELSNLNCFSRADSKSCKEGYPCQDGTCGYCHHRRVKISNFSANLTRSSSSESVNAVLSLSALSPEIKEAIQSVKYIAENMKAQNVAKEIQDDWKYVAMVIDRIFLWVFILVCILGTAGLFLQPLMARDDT
- Sequence (P12390 whole entry): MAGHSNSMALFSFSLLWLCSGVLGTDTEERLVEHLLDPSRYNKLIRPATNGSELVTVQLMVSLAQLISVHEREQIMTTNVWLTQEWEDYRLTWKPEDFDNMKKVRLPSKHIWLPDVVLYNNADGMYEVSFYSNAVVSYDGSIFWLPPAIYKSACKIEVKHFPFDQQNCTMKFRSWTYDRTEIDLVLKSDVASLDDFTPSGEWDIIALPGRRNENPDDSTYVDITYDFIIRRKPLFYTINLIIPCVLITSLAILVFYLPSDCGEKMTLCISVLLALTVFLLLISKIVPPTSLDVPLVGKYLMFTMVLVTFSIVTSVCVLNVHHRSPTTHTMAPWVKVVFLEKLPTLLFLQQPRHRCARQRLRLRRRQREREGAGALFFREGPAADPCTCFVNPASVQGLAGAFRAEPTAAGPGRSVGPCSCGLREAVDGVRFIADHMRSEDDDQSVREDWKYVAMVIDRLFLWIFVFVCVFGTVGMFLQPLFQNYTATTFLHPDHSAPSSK
- test: Antagonist activity at rat alpha3beta2 nAChR expressed in xenopus oocytes assessed as inhibition of Ach- induced response at -70 mV holding potential preincubated for 5 mins followed by Ach stimulation by voltage-clamp based electrophysiological method
Where a SMILES comes first, the peptide text is derived from it. Bridges are numbered along the chain shown (N, C = ends).
measured_parameter: IC50 (µM)
Numbers only here, please. The scale is µM.

| compound | test_value |
| --- | --- |
| C[C@@H]1NC(=O)[C@@H]2CSSC[C@H](N)C(=O)N[C@@H](CSSC[C@@H](C(N)=O)NC(=O)[C@H](Cc3cnc[nH]3)NC(=O)[C@H](CCC(=O)O)NC(=O)[C@H](Cc3cnc[nH]3)NC1=O)C(=O)N[C@@H](CO)C(=O)N[C@@H](CC(N)=O)C(=O)N1CCC[C@H]1C(=O)N1CCC[C@H]1C(=O)N2 (H-CCSNPPCAHEHC-NH2; disulfide 1-7, 2-12) | 4.63 |

Next compound, IC50 to be filled in.
Q: Look at this compound and give its reported IC50. C[C@@H]1NC(=O)[C@@H]2CSSC[C@H](NC(=O)CN)C(=O)N[C@@H](CSSC[C@@H](C(N)=O)NC(=O)[C@H](Cc3cnc[nH]3)NC(=O)[C@H](CCC(=O)O)NC(=O)[C@H](Cc3cnc[nH]3)NC1=O)C(=O)N[C@@H](CO)C(=O)N[C@@H](CC(N)=O)C(=O)N1CCC[C@H]1C(=O)N1CCC[C@H]1C(=O)N2 (H-GCCSNPPCAHEHC-NH2; disulfide 2-8, 3-13)
Result: 0.35
